These entries and their values trace back to PubChem BioAssay (NCI).

- Test system: NCI-H226 lung
- Assay Procedure: NCI tumour cell line growth inhibition, 48 h
Reported Metric: TGI

Solved cases below.
>>> observed_value("O=Cc1cn(S(=O)(=O)c2ccccc2)c2ccccc12")
"> 100 µM"
>>> observed_value("C1C[S][Ge]2([S]CCS1)[S]CCSCC[S]2")
"> 100 µM"
>>> observed_value("COc1ccc(OC)c(-c2cc(=O)c3cc4c(cc3[nH]2)OCO4)c1")
"55.6 µM"

Next up:
I am curious: what TGI value has been reported for COC(=O)C1=C(C)NC2=C(C(=O)c3ccccc32)C1c1cn[nH]c1-c1ccccc1 (centres undefined) ?
> 100 µM

###

TGI by entry:
- System: HCT-15 colon
- Assay Procedure: NCI tumour cell line growth inhibition, 48 h

>>> observed_value("O=[P+](O)c1cccnc1")
"> 100 µM"

What does the record list as TGI for CCCCC1N=CNc2c1ccc1c2[nH]c2ccccc21 (stereo unspecified) ?
4.72 µM

# get_value(readout='TGI', item= COc1cc(CC(=O)c2cc3c(cc2-c2ccccc2)OCO3)cc(OC)c1OC )
> 100 µM

###

# TGI per entry
- Test system: SK-OV-3 ovarian
- Assay Procedure: NCI tumour cell line growth inhibition, 48 h

Guide cases for TGI, answers given:
>>> observed_value("O=C(O)c1c[nH]c2c(ccc3[nH]cc(C(=O)O)c(=O)c32)c1=O")
"> 100 µM"
>>> observed_value("O=[P+](O)c1cccnc1")
"> 100 µM"
>>> observed_value("CCOC(=O)c1cc([N+](=O)[O-])cc([N+](=O)[O-])c1Sc1ncnc2nc[nH]c12")
"23.3 µM"
>>> observed_value("O=C1Nc2c(ccc(Cl)c2Cl)/C1=C\\c1cc(C(F)(F)F)cc(C(F)(F)F)c1")
"27.2 µM"
>>> observed_value("CN(C)C1(c2cc3ccccc3s2)CCCCC1")
"> 100 µM"

Find the recorded TGI belonging to Cc1cc(Cl)ccc1Nc1nc2c(s1)C(=O)c1ccccc1C2=O and report it.
26.1 µM

I would be grateful if you could share the reported TGI for C/C(CC(=O)Nc1cccc(C)c1C)=N\NC(N)=S .
> 100 µM

Return reported TGI; argument: CCN(CCN(CC)C(=O)NC)C(=O)NC
> 100 µM

TGI for COc1cc(/C=C/c2ccc(S(N)(=O)=O)cc2)cc(OC)c1 ?
75.7 µM

Any idea what its TGI is? The compound is O=Cc1cn(S(=O)(=O)c2ccccc2)c2ccccc12
> 100 µM

Need TGI, item CNC(=O)c1cc(Oc2ccc3nc(NC(=O)Nc4cc(C(F)(F)F)cc(C(F)(F)F)c4)sc3c2)ccn1
3.18 µM

So what's the measured TGI for this one? NNC(=S)NN/C=C(\C=Nc1ccccc1)[N+](=O)[O-]
> 100 µM

Would you kindly share the measured TGI for CCC1OC2C(CC=C(C)C)=C3OC(C)(O)C(C)(CC)C(=O)C3=C3OC(=O)C=C1C32 (stereo unspecified) ?
> 100 µM

Item CN1c2ccccc2S(=O)(=O)n2c(COc3ccccc3)nnc21 has what recorded TGI?
> 100 µM

Quick one: TGI for O=C1c2c(F)c(F)c(F)c(F)c2SC2=Nc3cccc4cccc(c34)N12 ?
23.2 µM

Recorded TGI of CC(C)(N)C(=O)N[C@@H]1C(=O)N2[C@@H]1SC(C)(C)[C@@H]2C(=O)O , please.
> 100 µM
